Data origin, for the record: the supplement of paper PMC4862054

Here, each record is paired with measured normalised viability data.
Tested on: HCC1599
Assay: normalised viability (% of control), CellTiter-Blue; higher = more viable cells (about 100 = DMSO control)
Conditions: 10000 nM; incubation time: 72 h
MEASUREMENT_LABEL: normalised viability

[[record]]
molecule = "C[C@@H](C(=O)O)c1ccc(-c2ccccc2)c(F)c1 [Tarenflurbil]"
measurement_label = "normalised viability"
test_result = "106%"

[[record]]
molecule = "C[C@@H]1C[C@H]2[C@@H]3CCC4=CC(=O)C=C[C@]4(C)[C@@]3(F)[C@@H](O)C[C@]2(C)[C@@]1(O)C(=O)CO [Dexamethasone]"
measurement_label = "normalised viability"
test_result = "86.7%"

[[record]]
molecule = "NC(=O)c1cccc2cn(-c3ccc([C@@H]4CCCNC4)cc3)nc12 [MK-4827]"
measurement_label = "normalised viability"
test_result = "93.3%"

[[record]]
molecule = "CC(C)C(=O)Nc1ccc([N+](=O)[O-])c(C(F)(F)F)c1 [Flutamide]"
measurement_label = "normalised viability"
test_result = "118%"

